Reference source: patent US20250152585A1

Please respond with reported IC50 for every item in the list.
- Target Entity: full length N-terminally FLAG-tagged PARP1 (Homo sapiens, UniProt P09874)
- Sequence (P09874 whole entry): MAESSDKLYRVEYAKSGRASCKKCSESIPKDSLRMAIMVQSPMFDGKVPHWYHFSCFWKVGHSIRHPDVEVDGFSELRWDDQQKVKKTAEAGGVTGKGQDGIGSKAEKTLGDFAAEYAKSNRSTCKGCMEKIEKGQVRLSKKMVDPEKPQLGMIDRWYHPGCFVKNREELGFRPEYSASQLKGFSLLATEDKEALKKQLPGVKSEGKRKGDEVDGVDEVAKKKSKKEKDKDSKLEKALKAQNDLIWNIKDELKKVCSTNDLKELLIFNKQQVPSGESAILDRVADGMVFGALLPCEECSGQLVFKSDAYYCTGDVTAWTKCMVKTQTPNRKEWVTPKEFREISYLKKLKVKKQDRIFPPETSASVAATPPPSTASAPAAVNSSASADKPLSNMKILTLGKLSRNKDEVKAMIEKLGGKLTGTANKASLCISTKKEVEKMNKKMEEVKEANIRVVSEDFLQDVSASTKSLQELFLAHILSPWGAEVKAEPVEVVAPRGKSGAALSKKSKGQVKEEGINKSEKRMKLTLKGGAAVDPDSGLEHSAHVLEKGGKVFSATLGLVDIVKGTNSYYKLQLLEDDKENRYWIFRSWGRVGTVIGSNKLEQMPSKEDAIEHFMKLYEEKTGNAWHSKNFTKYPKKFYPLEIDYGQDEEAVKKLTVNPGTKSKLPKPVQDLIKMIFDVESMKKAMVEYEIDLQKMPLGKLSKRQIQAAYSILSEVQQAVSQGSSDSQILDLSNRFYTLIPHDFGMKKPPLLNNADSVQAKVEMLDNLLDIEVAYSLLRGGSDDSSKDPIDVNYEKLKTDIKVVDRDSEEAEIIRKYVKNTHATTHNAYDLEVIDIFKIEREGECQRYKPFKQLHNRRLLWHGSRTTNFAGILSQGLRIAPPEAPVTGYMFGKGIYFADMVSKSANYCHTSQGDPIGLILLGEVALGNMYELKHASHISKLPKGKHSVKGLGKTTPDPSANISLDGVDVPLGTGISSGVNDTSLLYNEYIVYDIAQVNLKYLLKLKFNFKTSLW
- Test: PARP1 biochemical DELFIA assay (auto-PARylation)
- Design: recombinant full length human N-terminally FLAG-tagged PARP1
- Protocol Conditions: binned IC50, biochemical auto-PARylation assay

1) CNC(=O)c1ccc(N2CCC(N3CCC(c4[nH]c(=O)c5cc(F)ccc5c4F)C3)CC2)c(F)n1 (racemic) [Compound 403rac] :: < 10 nM
2) CCc1ccc(C2CCN(C3CCN(c4ccc(C(=O)NC5CC5)nc4F)CC3)C2)[nH]c1=O (single isomer, unassigned) [Compound 353a] :: < 10 nM

Now examine the next entry.
Consider the molecule shown here: CNC(=O)c1ccc(N2CCC(N3CCC(c4nc5c(C(F)(F)F)c[nH]c5c(=O)[nH]4)C3)CC2)cn1 (single isomer, unassigned) [Compound 293a] What is its recorded IC50?
> 10000 nM

---

- Target Entity: full length N-terminally FLAG-tagged PARP1 (Homo sapiens)
- Test: PARP1 probe displacement HTRF assay
- Protocol Conditions: read-out: PARP1 HTRF; binned Kd, PARP1 probe displacement HTRF
pKd: −log10 of the molar value.
Value Kind: pKd

Example entries and their recorded answers appear below.
1. CCc1cnc(C2CCCN(C3CCN(c4ccc(C(=O)NC)nc4)CC3)C2)[nH]c1=O (single isomer, unassigned) [Compound 31b] :: 7.00 to 8.00
2. CCc1ccc(C2CCN(C3CCN(c4ccc(C(=O)NC)nc4)CC3)C2)[nH]c1=O (single isomer, unassigned) [Compound 72b] :: > 8.00
3. CNC(=O)c1ccc(N2CCC(N3CCC(c4cc5cccc(F)c5c(=O)[nH]4)C3)CC2)cn1 (single isomer, unassigned) [Compound 136b] :: > 8.00

Each compound below has a recorded value; state its pKd.
1. CNC(=O)c1ccc(N2CCC(N3CCC(c4nc5ccccc5c(=O)[nH]4)C3)CC2)c(Cl)n1 (racemic)
2. CNC(=O)c1ccc(N2CCC(N3CCC(c4[nH]c(=O)c5ccccc5c4Cl)C3)CC2)cn1 (single isomer, unassigned) [Compound 219a]
3. CNC(=O)c1ccc(N2CCC(N3CCCC(c4ccc(C(C)C)c(=O)[nH]4)C3)CC2)cn1 (racemic)
4. CNC(=O)c1ccc(N2CCC(N3CCC(c4cc5cccc(C(F)(F)F)c5c(=O)[nH]4)C3)CC2)cn1 (racemic)

1. > 8.00
2. > 8.00
3. 7.00 to 8.00
4. > 8.00

---

Please respond with reported pKd for every item in the list.
- Target Entity: N-terminally FLAG-tagged PARP2 (amino acids 1-583) (Homo sapiens, UniProt Q9UGN5)
- Construct: N-terminally FLAG-tagged PARP2 (amino acids 1-583)
- Sequence (Q9UGN5 whole entry, the tested form may be a part): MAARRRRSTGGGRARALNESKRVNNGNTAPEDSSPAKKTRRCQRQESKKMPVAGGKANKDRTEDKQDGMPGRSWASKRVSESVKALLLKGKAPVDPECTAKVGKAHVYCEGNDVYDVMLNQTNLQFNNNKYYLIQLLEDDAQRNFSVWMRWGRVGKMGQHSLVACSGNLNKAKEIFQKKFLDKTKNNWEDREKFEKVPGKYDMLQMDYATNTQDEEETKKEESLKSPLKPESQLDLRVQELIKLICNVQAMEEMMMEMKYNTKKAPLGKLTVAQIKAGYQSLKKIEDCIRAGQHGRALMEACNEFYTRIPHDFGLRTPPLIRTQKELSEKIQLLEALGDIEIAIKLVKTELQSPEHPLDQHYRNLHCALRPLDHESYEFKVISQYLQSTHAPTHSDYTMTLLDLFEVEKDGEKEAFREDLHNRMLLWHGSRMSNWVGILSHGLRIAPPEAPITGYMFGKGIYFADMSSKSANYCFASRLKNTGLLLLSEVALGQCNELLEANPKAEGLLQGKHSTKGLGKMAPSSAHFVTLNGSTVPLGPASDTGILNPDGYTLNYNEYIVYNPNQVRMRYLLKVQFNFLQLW
- Test: PARP2 probe displacement HTRF assay
- Type: binding
- Protocol Conditions: binned Kd, probe displacement HTRF
pKd: −log10 of the molar value.

Example entries and their recorded answers appear below.
1. CNC(=O)c1ccc(N2CCC(N3CC4(c5nc6c(c(=O)[nH]5)CCCN6C)CC3C4)CC2)c(F)n1 :: 6.00 to 7.00
2. O=C(NCC(F)F)c1ccc(N2CCC(N3CCC(c4cc5cccc(F)c5c(=O)[nH]4)C3)CC2)c(F)n1 (single isomer, unassigned) [Compound 390b] :: 7.00 to 8.00

Now examine the next entry.
Consider the molecule shown here: CNC(=O)c1ccc(N2CCC(N3CCC(c4nc5ncncc5c(=O)[nH]4)C3)CC2)cn1 (racemic) What is its recorded pKd?
< 5.00

---

- Target Entity: full length N-terminally FLAG-tagged PARP1 (Homo sapiens)
- Test: PARP1 probe displacement HTRF assay
- Protocol Conditions: read-out: PARP1 HTRF; binned Kd, PARP1 probe displacement HTRF
pKd: −log10 of the molar value.
Please respond with reported pKd for every item in the list.

1. CNC(=O)c1ccc(N2CCC(N3CCC(c4cc5cccc(Cl)c5c(=O)[nH]4)C3)CC2)cn1 (single isomer, unassigned) [Compound 128b] :: > 8.00
2. CNC(=O)c1ccc(N2CCC(N3CCC(c4nc5c(F)cccc5c(=O)[nH]4)C3)CC2)cn1 (single isomer, unassigned) [Compound 121b] :: > 8.00
3. CNC(=O)c1ccc(OCCN2CCCC(c3nc4ccccc4c(=O)[nH]3)C2)cn1 (single isomer, unassigned) [Compound 65b] :: 6.00 to 7.00
4. CNC(=O)c1ccc(N2CCC(N3CCC(c4nc5cc(F)ccc5c(=O)[nH]4)C3)CC2)cn1 (single isomer, unassigned) [Compound 92b] :: > 8.00
5. CNC(=O)c1ccc(N2CCC(N3CCC(c4nc5c(C(F)(F)F)cccc5c(=O)[nH]4)C3)CC2)cn1 (single isomer, unassigned) [Compound 178a] :: 6.00 to 7.00

Consider the compound shown here: N#Cc1ccc(N2CCC(N3CCCC(c4nc5ccccc5c(=O)[nH]4)C3)CC2)cn1 (single isomer, unassigned) [Compound 70a] What is its recorded pKd?
6.00 to 7.00

---

- Target Entity: full length N-terminally FLAG-tagged PARP1 (Homo sapiens, UniProt P09874)
- Test: PARP1 biochemical DELFIA assay (auto-PARylation)
- Parameters: recombinant full length human N-terminally FLAG-tagged PARP1
- Protocol Conditions: binned IC50, PARP1 biochemical DELFIA assay
Please respond with reported IC50 for every item in the list.

Example entries and their recorded answers appear below.
1. CNC(=O)c1ccc(N2CCC(N3CCC(c4cc5c(F)ccc(F)c5c(=O)[nH]4)C3)CC2)cn1 (single isomer, unassigned) [Compound 180b] :: < 10 nM
2. CNC(=O)c1ccc(N2CCC(N3CCCC(c4ccc(CC(F)(F)F)c(=O)[nH]4)C3)CC2)cn1 (single isomer, unassigned) [Compound 169b] :: < 10 nM
3. CNC(=O)c1ccc(N2CC(N3CCCC(c4nc5ccccc5c(=O)[nH]4)C3)C2)cn1 (single isomer, unassigned) [Compound 23a] :: 100 to 1000 nM
4. CNC(=O)c1ccc(N2CCC(N3CC4(c5nc6ccccc6c(=O)[nH]5)CC3C4)CC2)cn1 :: < 10 nM
5. CNC(=O)c1cc(C)c(N2CCC(N3CCC(c4cc5ccccc5c(=O)[nH]4)C3)CC2)c(C)n1 (single isomer, unassigned) [Compound 205a] :: 100 to 1000 nM

Each molecule below has a recorded value; state its IC50.
1. CNC(=O)c1ccc(N2CCC(N3CCCC(c4nc5sc(C)c(C)c5c(=O)[nH]4)C3)CC2)cn1 (single isomer, unassigned) [Compound 199a]
2. CNC(=O)c1ccc(N2CC(CN3CCC(c4nc5ccccc5c(=O)[nH]4)CC3)C2)cn1
3. CNC(=O)c1ccc(N2CCC(N3CCCC(c4nc5ccncc5c(=O)[nH]4)C3)CC2)cn1 (single isomer, unassigned) [Compound 93b]
4. NC(=O)c1ccc(N2CCC(N3CCCC(c4nc5ccccc5c(=O)[nH]4)C3)CC2)cn1 (single isomer, unassigned) [Compound 109b]
5. CNC(=O)c1ccc(N2CCC(N3CCC(c4nc5ccccc5c(=O)[nH]4)C3)CC2)nc1 (single isomer, unassigned) [Compound 46a]

1: < 10 nM; 2: < 10 nM; 3: 1000 to 10000 nM; 4: 10 to 100 nM; 5: < 10 nM

---

- Target Entity: N-terminally FLAG-tagged PARP2 (amino acids 1-583) (Homo sapiens)
- Construct: N-terminally FLAG-tagged PARP2 (amino acids 1-583)
- Test: PARP2 probe displacement HTRF assay
- Format: binding
- Protocol Conditions: binned Kd, PARP2 probe displacement HTRF
Please respond with reported Kd for every item in the list.

Example entries and their recorded answers appear below.
1. CNC(=O)c1ccc(N2CCC(N3CCCC(c4nc5c(Cl)cccc5c(=O)[nH]4)C3)CC2)cn1 (single isomer, unassigned) [Compound 44a] :: > 10000 nM
2. CNC(=O)c1ccc(N2CCC(N3CCC(c4cc5ncccc5c(=O)[nH]4)C3)CC2)cn1 (single isomer, unassigned) [Compound 218a] :: > 10000 nM
3. CNC(=O)c1ccc(N2CCC(N3CCC(c4nc5ccccc5c(=O)[nH]4)C3)CC2)c(C(F)F)n1 (single isomer, unassigned) [Compound 158b] :: 1000 to 10000 nM
4. O=c1[nH]c(C2CCN(C3CCN(c4ccc(F)cc4F)CC3)C2)nc2ccccc12 (single isomer, unassigned) [Compound 107a] :: 1000 to 10000 nM
5. CNC(=O)c1ccc(N2CCC(N3CCCC(c4nc5ccccc5c(=O)[nH]4)C3)CC2)c(Cl)n1 (single isomer, unassigned) [Compound 94b] :: > 10000 nM
6. CNC(=O)c1ccc(N2CCC(N3CCC(c4nc5cc(F)ccc5c(=O)[nH]4)C3)CC2)cn1 (single isomer, unassigned) [Compound 92b] :: 1000 to 10000 nM
7. CNC(=O)c1ccc(N2CCC(N3CCC(c4ccc(OC)c(=O)[nH]4)C3)CC2)c(C(F)(F)F)n1 (single isomer, unassigned) [Compound 152a] :: 1000 to 10000 nM
8. CNC(=O)c1ccc(N2CCC(N3CCCC(c4nc5ccncc5c(=O)[nH]4)C3)CC2)cn1 (single isomer, unassigned) [Compound 93a] :: > 10000 nM
9. CNC(=O)c1ccc(N2CCC(N3CCC(c4nc5cccc(Cl)c5c(=O)[nH]4)C3)CC2)cn1 (single isomer, unassigned) [Compound 85a] :: 100 to 1000 nM
10. CNC(=O)c1ccc(N2CCC(N3CCC(c4nc5sc6c(c5c(=O)[nH]4)CCC6)C3)CC2)cn1 (single isomer, unassigned) [Compound 189b] :: 10 to 100 nM

Each compound below has a recorded value; state its Kd.
1. CNC(=O)c1ccc(N2CCC(N3CCC(c4cc5ccc(F)cc5c(=O)[nH]4)C3)CC2)cn1 (single isomer, unassigned) [Compound 154a]
2. CCc1ccc(C2CCN(C3CCN(c4ccc(C(=O)NC)nn4)CC3)C2)[nH]c1=O (single isomer, unassigned) [Compound 210b]
3. O=C(NCC(F)(F)F)c1ccc(N2CCC(N3CCC(c4nc5ccccc5c(=O)[nH]4)C3)CC2)cn1 (single isomer, unassigned) [Compound 130b]
4. CNC(=O)c1ccc(N2CCC(N3CCC(c4nc5cc(F)ccc5c(=O)[nH]4)C3)CC2)cn1 (single isomer, unassigned) [Compound 92a]
5. CNC(=O)c1ccc(N2CCC(N3CCC(c4cc5c(F)cccc5c(=O)[nH]4)C3)CC2)cn1 (single isomer, unassigned) [Compound 172a]
6. CNC(=O)c1ccc(N2CCC(N3CCC4CC4(c4nc5ccccc5c(=O)[nH]4)C3)CC2)cn1 (single isomer, unassigned) [Compound 90a]
7. CCc1ccc(C2CCN(C3CCN(c4cnc(C(=O)NC)cc4C)CC3)C2)[nH]c1=O (single isomer, unassigned) [Compound 217b]
8. CNC(=O)c1ccc(N2CCC(N3CCC(c4nc5c(c(C(F)(F)F)cn5C)c(=O)[nH]4)C3)CC2)cn1 (single isomer, unassigned) [Compound 170a]

1. 100 to 1000 nM
2. 1000 to 10000 nM
3. 100 to 1000 nM
4. > 10000 nM
5. 1000 to 10000 nM
6. > 10000 nM
7. 100 to 1000 nM
8. < 10 nM

Each compound below has a recorded value; state its Kd.
1. CNC(=O)c1ccc(N2CCC(N3CCC(c4nc5ccc(C(F)(F)F)cc5c(=O)[nH]4)C3)CC2)cn1 (single isomer, unassigned) [Compound 161b]
2. CNC(=O)c1ccc(OCCN2CCC(c3nc4ccccc4c(=O)[nH]3)CC2)cn1
3. CNC(=O)c1ccc(N2CCC(N3CCCC(c4cc5ccccc5c(=O)[nH]4)C3)CC2)cn1 (single isomer, unassigned) [Compound 100a]
4. CNC(=O)c1ccc(N2CCC(N3CCCC(c4nc5ccccc5c(=O)[nH]4)C3)CC2)cn1 (single isomer, unassigned) [Compound 6b]

1000 to 10000 nM
1000 to 10000 nM
100 to 1000 nM
1000 to 10000 nM
